Values compiled from the Human Domainome abundance scans (Beltran et al. 2025).

B1: Chromodomain-helicase-DNA-binding protein 5, residues 411 to 463; numbered along this chain, Q8TDI0 (parent)
chain: EEDDHMEFCRVCKDGGELLCCDACPSSYHLHCLNPPLPEIPNGEWLCPRCTCP

Variants of: B1
assayRemarks: abundance fitness (aPCA) (normalised: wild type 0, dead -1); higher = more abundant; growth selection in yeast, the domain comes from the species named
testParameters: Homo sapiens

{"variantString": "C52V", "abundance fitness": 0.062}
{"variantString": "W45V", "abundance fitness": -0.579}
{"variantString": "L46K", "abundance fitness": 0.079}
{"variantString": "R49V", "abundance fitness": 0.033}
{"variantString": "N42H", "abundance fitness": -0.054}
{"variantString": "L19Q", "abundance fitness": -0.155}
{"variantString": "C32E", "abundance fitness": -0.264}
{"variantString": "H31A", "abundance fitness": -0.092}
{"variantString": "S27G", "abundance fitness": -0.168}
{"variantString": "S27D", "abundance fitness": -0.3}
{"variantString": "C24K", "abundance fitness": -0.437}
{"variantString": "P36G", "abundance fitness": -0.169}
{"variantString": "N34F", "abundance fitness": 0.066}
{"variantString": "H31K", "abundance fitness": -0.029}
{"variantString": "C52G", "abundance fitness": 0.029}
{"variantString": "P25T", "abundance fitness": 0.044}
{"variantString": "D22F", "abundance fitness": -0.139}
{"variantString": "N34M", "abundance fitness": -0.221}
{"variantString": "I40S", "abundance fitness": -0.058}
{"variantString": "P48A", "abundance fitness": -0.27}
{"variantString": "E17P", "abundance fitness": -0.239}
{"variantString": "P25H", "abundance fitness": 0.024}
{"variantString": "L46F", "abundance fitness": 0.101}
